target: recombinant cynomolgus Aggrecan G1-IGD-G2 (cynomolgus); experiment: SPR (ProteOn), off-rate only indicative
measured property: koff (s⁻¹)

Below: 2 binders and their reported koff.
{"binder": "C01010054 (114F08-ALB26) (VHH, not shown: small tags and cut ends) VHH: EVQLVESGGGLVQAGGSLRLSCAASGSTFIINVVRWYRRTPGKQRELVATISSGGNANYVDSVRGRFSISRDGAKNAVDLQMNGLKPEDTAVYYCNVPTTHYGGVYYGPYWGQGTQVTVSS", "koff (s⁻¹)": 0.0069}
{"binder": "C01010060 (606A07-ALB26) (VHH, not shown: small tags and cut ends) VHH: DVQLVESGGGLVQPGGSLRLSCVASGRTFSIYGMGWFRQAPGKEREFVAAINGGSRTYYADSVKGRFTISRDNSKNTVYLQMNSLRPEDTAVYYCAADRSGYGTSLDWWYDYWGQGTLVTVSS", "koff (s⁻¹)": 0.02}

(I) C01010046 (601E08-ALB26) (VHH, not shown: small tags and cut ends) VHH: DVQLVESGGGLVQPGGSLRLSCTASGRTFSSYAVGWFRQAPGKEREFVAAISRSGRSTYYADSVKGRFTISRDNSKNTVYLQMNSLRPEDTAVYYCAAGLSYYSPHAYYDYWGQGTLVTVSS
(II) C01010097 (608A05-ALB26) (VHH, not shown: small tags and cut ends) VHH: DVQLVESGGGLVQPGGSLRLSCAASGRTFSTYTMGWFRQAPGKEREFVAAISWSGGTTYYADSVKGRFTISRDNSKNTVYLQMNSLRPEDTAVYYCAARPRYYYYSLYSYDYWGQGTLVTVSS
(III) C01010094 (604F02-ALB26) (VHH, not shown: small tags and cut ends) VHH: DVQLVESGGGLVQPGGSLRLSCAASGRTFSSYTMGWFRQAPGKEREFVAAISWSGGRTYYADSVKGRFTISRDNSKNTVYLQMNSLRPEDTAVYYCAAYRRRRASSNRGLWDYWGQGTLVTVSS
Rank items: key koff, increasing. Response field: labels, in requested order.
II, I, III

Data provenance is patent US20200140532A1.
